Test system: S. aureus HH 127
Experimental readout: MIC (µg/mL)

>>> observed_measurement("Cn1nnnc1SCC1=C(C(=O)O)N2C(=O)C(NC(=O)CS(C)(=O)=O)[C@H]2SC1 (stereo partly shown)")
3.1
>>> observed_measurement("CC1=C(C(=O)O)N2C(=O)C(NC(=O)CS(C)(=O)=O)[C@H]2SC1 (stereo partly shown)")
25
>>> observed_measurement("CCS(=O)(=O)CC(=O)NC1C(=O)N2C(C(=O)O)=C(COC(C)=O)CSC12 (stereo not shown)")
0.8
>>> observed_measurement("Cn1cnnc1SCC1=C(C(=O)O)N2C(=O)C(NC(=O)CS(C)(=O)=O)C2SC1 (stereo not shown)")
3.1
>>> observed_measurement("CC(=O)OCC1=C(C(=O)O)N2C(=O)C(NC(=O)CS(C)(=O)=O)C2SC1 (stereo not shown)")
3.1
>>> observed_measurement("Cn1c(SCC2=C(C(=O)O)N3C(=O)C(NC(=O)CS(C)(=O)=O)C3SC2)n[nH]c1=O (stereo not shown)")
1.6
>>> observed_measurement("CC(=O)OCC1=C(C(=O)O)N2C(=O)C(NC(=O)CS(N)(=O)=O)C2SC1 (stereo not shown)")
1.6
>>> observed_measurement("Cc1nnc(SCC2=C(C(=O)O)N3C(=O)C(NC(=O)CS(=O)(=O)c4ccccc4)[C@H]3SC2)s1 (stereo partly shown)")
0.8
>>> observed_measurement("Cc1nnc(SCC2=C(C(=O)O)N3C(=O)C(NC(=O)CS(C)(=O)=O)[C@H]3SC2)s1 (stereo partly shown)")
1.6
>>> observed_measurement("Cc1nc(SCC2=C(C(=O)O)N3C(=O)C(NC(=O)CS(C)(=O)=O)C3SC2)n[nH]1 (stereo not shown)")
1.6
>>> observed_measurement("CS(=O)(=O)CC(=O)NC1C(=O)N2C(C(=O)[O-])=C(C[n+]3ccccc3)CSC12 (stereo not shown)")
0.8
>>> observed_measurement("CC(=O)OCC1=C(C(=O)O)N2C(=O)C(NC(=O)CS(=O)(=O)c3ccccc3)C2SC1 (stereo not shown)")
1.6
>>> observed_measurement("CCS(=O)(=O)CC(=O)NC1C(=O)N2C(C(=O)O)=C(CSc3nnc(C)s3)CSC12 (stereo not shown)")
0.4
